Reference source: patent US12084423B2

System: IR-induced senescent cells (IR-SC WI-38)
assay_overview: Cell viability of IR-induced senescent WI-38 cells after 72 hours of compound treatment
Format: cell-based
cond: Homo sapiens; IR-induced senescent WI-38 cells; cell viability at 72 hours post-treatment
The entries below come with measured EC50 values attached.

COc1ccc(/C=C/C(=O)N2CCC=C(Cl)C2=O)cc1 ... 0.51 µM
O=C1C(Br)=CCCN1S(=O)(=O)/C=C/c1ccccc1 ... 2.8 µM
O=C1C(Br)=CCCN1C(=O)c1cc2ccccc2oc1=O ... 1.7 µM
COc1cc(/C=C/C(=O)N2CCC=C(F)C2=O)cc(OC)c1OC ... 15.3 µM
COc1cc(/C=C/C(=O)N2OCC=CC2=O)cc(OC)c1OC ... 8 µM
COc1cc(/C=C/C(=O)N2CCC=C(Br)C2=O)cc(OC)c1OC ... 0.52 µM
COc1ccc(/C=C/C(=O)N2CCCC=C(Cl)C2=O)cc1 ... 0.16 µM
O=C1C(Br)=CCCCN1C(=O)c1cc2ccccc2oc1=O ... 4 µM
COc1cc(/C=C/C(=O)N2CCCC=C(Br)C2=O)cc(OC)c1OC ... 0.56 µM
O=C1C(Cl)=CCCN1S(=O)(=O)/C=C/c1ccccc1 ... 0.94 µM

Query :: Please report the recorded EC50 for "C=CC(=O)N1OCC=CC1=O" .
Result :: 5.7 µM

Query :: Please report the recorded EC50 for "COc1ccc(/C=C/C(=O)N2CCCC=C(Br)C2=O)cc1" .
Result :: 1.3 µM

Query :: Please report the recorded EC50 for "COc1cc(/C=C/C(=O)N2CCCC=C(Cl)C2=O)cc(OC)c1OC" .
Result :: 0.45 µM

Query :: Please report the recorded EC50 for "COc1ccc(/C=C/C(=O)N2CCC=C(Br)C2=O)cc1" .
Result :: 0.63 µM

Query :: Please report the recorded EC50 for "COc1cc(/C=C/C(=O)N2CCC=C(Cl)C2=O)cc(OC)c1OC" .
Result :: 0.65 µM

Query :: Please report the recorded EC50 for "COc1cc(/C=C/C(=O)N2CCC=C(I)C2=O)cc(OC)c1OC" .
Result :: 2.3 µM
